The measured values listed here are drawn from patent US20060004088A1.

Examples of compounds with documented Inhibition rate against osteoclast formation, % follow.
# Tested on: osteoclast pregenitor cells
# PROCEDURE SUMMARY: Inhibition rates of furan derivatives versus osteoclast formation (TRAP staining)
# Type: cell-based, mice
# TEST SETTINGS: 0.1 μM; TRAP-positive multinucleated cells, untreated control set as 100%
Show the value, then the unit it is measured in.

Take a look at these entries with their results.
CC(=O)c1ccc(NC(=O)c2ccc(COc3cccc4ccccc34)o2)cc1 | 0%
COc1ccccc1NC(=O)c1ccc(COc2cc(C)ccc2C)o1 | 4.87%
O=C(Nc1cccc([N+](=O)[O-])c1)c1ccc(COc2ccc(I)cc2)o1 | 0%

Kindly state the measured Inhibition rate against osteoclast formation, % obtained for `O=Cc1ccc(COC(=O)Cc2ccc3ccccc3c2)o1` with osteoclast pregenitor cells. 0%

* * *

Each entry below lists one item and its recorded Inhibition rate against osteoclast formation, % value.
# System: osteoclast pregenitor cells
# PROCEDURE SUMMARY: Inhibition rates of furan derivatives versus osteoclast formation (TRAP staining)
# Type: cell-based, mice
# TEST SETTINGS: 1 μM; TRAP-positive multinucleated cells, untreated control set as 100%
Numbers only; they are read as %.

Below: 4 compounds and their reported Inhibition rate against osteoclast formation, %.
O=Cc1ccc(COC(=O)Nc2cccc(Cl)c2)o1 [Compound 49] | 10
CCCc1ccc(OCc2ccc(C(=O)Nc3cc(Cl)ccc3Cl)o2)cc1 [Compound 170] | 0
CCC(C)NC(=O)c1ccc(COc2ccc(I)cc2)o1 (centres unmarked) [Compound 121] | 0
NC(=O)c1ccc(NC(=O)c2ccc(COc3cc(Cl)ccc3Cl)o2)cc1 [Compound 148] | 3.05

Alright, here's another compound for you.
Provide the documented Inhibition rate against osteoclast formation, % with osteoclast pregenitor cells as the system for Cc1cc(OCc2ccc(C(=O)O)o2)ccc1Cl [Compound 119] 0

* * *

# Test system: osteoclast pregenitor cells
# PROCEDURE SUMMARY: Inhibition rates of furan derivatives versus osteoclast formation (TRAP staining)
# Type: cell-based, mice
# TEST SETTINGS: 1 μM; TRAP-positive multinucleated cells, untreated control set as 100%
ATTRIBUTE MEASURED: Inhibition rate against osteoclast formation, % (%)
Answer with a number only, understood to be in %.

O=Cc1ccc(COC(=O)Cc2ccccc2)o1 [Compound 32] | 23.3

Using the record for COC(=O)c1ccc(COc2ccc(Cl)cc2[N+](=O)[O-])o1 [Compound 66] , report its Inhibition rate against osteoclast formation, %. 0

Moving on to CCCCNC(=O)OCc1ccc(C=O)o1 [Compound 53] 10

Field entry: CCc1cccc(NC(=O)c2ccc(COc3ccc(F)cc3)o2)c1 [Compound 163] 0

COC(=O)c1ccc(COc2ccc3c(c2)CCC3)o1 [Compound 70] ? 0

Can you check O=C(Nc1cc(C(F)(F)F)ccc1Cl)c1ccc(COc2ccc(Cl)cc2)o1 [Compound 181] next? 0

Can you check COc1ccccc1NC(=O)c1ccc(COc2ccc(C(C)(C)C)cc2)o1 [Compound 189] next? 0

Same thing, different molecule: CCOc1ccccc1NC(=O)c1ccc(COc2ccc(Cl)cc2[N+](=O)[O-])o1 [Compound 144] 21.95

// next record COC(=O)c1ccccc1NC(=O)c1ccc(COc2ccc(C)c(C)c2)o1 [Compound 180] 0

Field entry: COc1ccccc1NC(=O)c1ccc(COc2ccccc2OC)o1 [Compound 166] 0

Now the molecule Cc1ccc(F)c(NC(=O)c2ccc(COc3ccc(C)cc3[N+](=O)[O-])o2)c1 [Compound 155] 0

Continue with O=C(O)c1ccc(COc2cc(Cl)ccc2Cl)o1 [Compound 109] 0

Please answer likewise for Cc1ccc(OCc2ccc(C(=O)Nc3ccc(F)cc3)o2)c([N+](=O)[O-])c1 [Compound 147] 19.4

Follow-up item: CC(=O)Nc1cccc(NC(=O)c2ccc(COc3c(F)c(F)c(F)c(F)c3F)o2)c1 [Compound 187] 37.05

One more molecule: O=C(O)c1ccc(CSCc2ccccc2)o1 [Compound 120] 0

Note, next up: O=C(Nc1cc(F)ccc1F)c1ccc(COc2cccc(Cl)c2)o1 [Compound 151] 0

What would you report for CC(C)(C)NC(=O)c1ccc(COCC(F)(F)F)o1 [Compound 127] ? 0

Param item: COC(=O)c1ccc(COc2ccc(Cl)cc2Cl)o1 [Compound 60] 0

What about COc1ccc(NC(=O)c2ccc(COc3ccccc3Br)o2)c(OC)c1 [Compound 188] ? 0
